Each item that follows carries a reported KIDNEY_R.
- Species on record: Rattus norvegicus
- TEST: Open TG-GATES - Regimen: Daily Repeat
- Type: toxicity, organism-based, Sprague-Dawley
- Set-up: regimen Daily Repeat, gender Male, age 6 weeks
- RUN PARAMETERS: in vivo, po, 300 mg/kg, […], tissue Kidney, route gavage, dose level Middle, time 28 day
MEASURED PROPERTY: KIDNEY_R (g)

1. CC(=O)[C@@]1(O)CC[C@H]2[C@@H]3C=C(Cl)C4=CC(=O)CC[C@]4(C)[C@H]3CC[C@@]21C    1.2
2. CCCCNC(=O)NS(=O)(=O)c1ccc(C)cc1 [TOLBUTAMIDE]    1.4
3. O=C(O)c1ccccc1Nc1ccccc1    1.5
4. CC(S)C(=O)NCC(=O)O (centres undefined)    1.4

---

- Organism: Rattus norvegicus
- TEST: Open TG-GATES - Regimen: Daily Repeat
- Type: toxicity, organism-based, Sprague-Dawley
- Set-up: regimen Daily Repeat, gender Male, age 6 weeks
- RUN PARAMETERS: in vivo, po, 0 mg/kg, […], tissue Plasma, route gavage, dose level Control, time 28 day
Label Condition met when RALB is strictly below 3 g/dL; otherwise label Condition not met.

1. O=c1ccc2ccccc2o1    Condition not met
2. Nc1ccc(Cc2ccc(N)cc2)cc1    Condition met
3. CN(C/C=C/C#CC(C)(C)C)Cc1cccc2ccccc12    Condition not met
4. CCCCNC(=O)NS(=O)(=O)c1ccc(C)cc1 [TOLBUTAMIDE]    Condition met
5. CCO    Condition not met
6. CCN(CC)C(=S)SSC(=S)N(CC)CC    Condition not met
7. CCCCC1C(=O)N(c2ccccc2)N(c2ccccc2)C1=O    Condition not met
8. CC(=O)[C@@]1(O)CC[C@H]2[C@@H]3C=C(Cl)C4=CC(=O)CC[C@]4(C)[C@H]3CC[C@@]21C    Condition not met
9. CN(CCOc1ccc(CC2SC(=O)NC2=O)cc1)c1ccccn1.O=C(O)/C=C\C(=O)O (stereo not drawn) [ROSIGLITAZONE MALEATE]    Condition not met
10. NS(=O)(=O)c1cc(C(=O)O)c(NCc2ccco2)cc1Cl [FUROSEMIDE]    Condition met
11. O=C(O)c1ccccc1Nc1ccccc1    Condition met
12. COc1ccc([C@@H]2Sc3ccccc3N(CCN(C)C)C(=O)[C@@H]2OC(C)=O)cc1    Condition met
13. CC(S)C(=O)NCC(=O)O (stereo not drawn)    Condition not met

---

- Species on record: Rattus norvegicus
- TEST: Open TG-GATES - Regimen: Daily Repeat
- Assay type: toxicity, organism-based, Sprague-Dawley
- Design: regimen Daily Repeat, gender Male, age 6 weeks
- RUN PARAMETERS: in vivo, po, 100 mg/kg, […], route gavage, dose level Low, time 14 day
Each item that follows carries a reported TERMINAL_BW.
MEASURED PROPERTY: TERMINAL_BW (g)

1) CCCCNC(=O)NS(=O)(=O)c1ccc(C)cc1 [TOLBUTAMIDE]    313.3
2) CC(S)C(=O)NCC(=O)O (centres undefined) [TIOPRONIN]    321.9
3) CC(=O)[C@@]1(O)CC[C@H]2[C@@H]3C=C(Cl)C4=CC(=O)CC[C@]4(C)[C@H]3CC[C@@]21C [CHLORMADINONE]    293.5
4) O=C(O)c1ccccc1Nc1ccccc1 [FENAMIC ACID]    337.7

Origin of measurements: ChEMBL document CHEMBL3885861
